The reported numbers originate from paper PMC5540273.

This section presents compounds with their documented %Inh values.
- System: PIK3CA
- CONDITION: concentration: 1 μM,replicates: in singlicate; n = 1;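 further: KINOMEscan kinase panel screen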
MEASURED_PARAMETER: %Inh (%)

- COMPOUND: "CC(=O)Nc1ccc(-c2cc3ncnc(SCC(=O)O)c3s2)cc1"
  UNITS: "%"
  MEAS_VALUE: 0
- COMPOUND: "N#Cc1cccc(C(=O)NC2CCN(c3ccnc(Nc4ccc(F)cc4)n3)C2)c1 (centres unmarked)"
  UNITS: "%"
  MEAS_VALUE: 0
- COMPOUND: "C[C@@H](Oc1cc(-n2cnc3cc(-c4cnn(C)c4)ccc32)sc1C(N)=O)c1ccccc1Cl"
  UNITS: "%"
  MEAS_VALUE: 0
- COMPOUND: "Cn1ccc2ncnc(Oc3ccc(NC(=O)Nc4cccc(C(F)(F)F)c4)c(Cl)c3)c21"
  UNITS: "%"
  MEAS_VALUE: 0
- COMPOUND: "Nc1nccc(-c2ccc3c(N)n[nH]c3c2)n1"
  UNITS: "%"
  MEAS_VALUE: 5
- COMPOUND: "O=C(Nc1cccc(C(F)(F)F)c1)c1cccc(Oc2ccc3nccn3n2)c1"
  UNITS: "%"
  MEAS_VALUE: 98.1
- COMPOUND: "Cc1cccc2c(-c3ccncc3)c(-c3ccc(F)cc3)nn12.Cl"
  UNITS: "%"
  MEAS_VALUE: 0
- COMPOUND: "COC(=O)c1cccc(NC(=O)NC2CCN(c3ccnc(NCc4ccc(F)cc4)n3)CC2)c1"
  UNITS: "%"
  MEAS_VALUE: 0
- COMPOUND: "CCn1c(-c2nonc2N)nc2cncc(Br)c21"
  UNITS: "%"
  MEAS_VALUE: 0
- COMPOUND: "CCOC(=O)N1CCC(n2cnc(-c3ccc(F)cc3)c2-c2ccnc(N)n2)CC1"
  UNITS: "%"
  MEAS_VALUE: 15
- COMPOUND: "CC(C)S(=O)(=O)N1CCN(Cc2ccc3c(c2)nc(NC(=O)c2ccsc2)n3C[C@H](O)c2ccccc2)CC1"
  UNITS: "%"
  MEAS_VALUE: 0
- COMPOUND: "COC(=O)Nc1nc2cc(Oc3ccc(NC(=O)Nc4cc(C(F)(F)F)ccc4Cl)cc3)ccc2[nH]1.Cl"
  UNITS: "%"
  MEAS_VALUE: 0
- COMPOUND: "O=C(Nc1ccccc1)c1cccc(Oc2ccc3nccn3n2)c1"
  UNITS: "%"
  MEAS_VALUE: 0
- COMPOUND: "O=C(Nc1cccc(Oc2ccc3nccn3n2)c1)Nc1cccc(C(F)(F)F)c1"
  UNITS: "%"
  MEAS_VALUE: 0
- COMPOUND: "CN1CCN(CCNc2nc3cc(Oc4ccc(NC(=O)Nc5cc(C(F)(F)F)ccc5F)cc4)ccc3[nH]2)CC1.Cl.Cl"
  UNITS: "%"
  MEAS_VALUE: 0
- COMPOUND: "CCNCC(Cc1ccccc1)NC(=O)c1cc(Br)c(-c2ccnc3[nH]ccc23)s1.Cl.Cl (centres unmarked)"
  UNITS: "%"
  MEAS_VALUE: 0
- COMPOUND: "CC(=O)Nc1nc2cnc(Nc3cc(NC(=O)c4cccc(CC(C)(C)C#N)c4)ccc3C)nc2s1"
  UNITS: "%"
  MEAS_VALUE: 11

* * *

- Tested on: HASPIN
- Construct: gene GSG2
- CONDITION: concentration: 1 μM,replicates: in singlicate; n = 1
MEASURED_PARAMETER: %Inh (%)

- COMPOUND: "Cc1ccc(C(=O)Nc2ccc(Oc3ccc4nc(NC(=O)C5CC5)cn4c3)c(F)c2)c(=O)n1-c1ccccc1"
  MEAS_VALUE: 0
- COMPOUND: "CCCC(=O)Nc1n[nH]c2ncccc12"
  MEAS_VALUE: 29
- COMPOUND: "COc1cccc(C2=C(Nc3cccc(Cl)c3)C(=O)NC2=O)c1"
  MEAS_VALUE: 0
- COMPOUND: "CN1CCN(CCNc2nc3cc(Oc4ccc(NC(=O)Nc5cc(C(F)(F)F)ccc5F)cc4)ccc3[nH]2)CC1.Cl.Cl"
  MEAS_VALUE: 0
- COMPOUND: "CC(C(=O)NC1CCN(c2ccnc(Nc3ccc(F)cc3)n2)C1)c1ccc(Cl)cc1 (centres unmarked)"
  MEAS_VALUE: 30
